biological target: human mPGES-1 (Homo sapiens (Human), UniProt O14684); test: mPGES-1 inhibitory activity test; type: biochemical; conditions: microsomes of CHO-K1 cells expressing human mPGES-1, PGH2 1 μM, PGE2 by HTRF; read-out: mPGES-1 inhibition (IC50 nM)
Sequence (O14684 whole entry): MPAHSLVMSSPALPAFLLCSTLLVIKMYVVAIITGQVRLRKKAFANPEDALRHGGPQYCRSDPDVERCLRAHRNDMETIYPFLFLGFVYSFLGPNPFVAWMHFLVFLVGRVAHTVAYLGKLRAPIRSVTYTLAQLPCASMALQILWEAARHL
Where a name gives a salt, the structure may show the parent alone.
MEASURED PROPERTY: IC50 (nM)

CC(C)(C)C(=O)NCc1ccc(Cl)c(C(=O)Nc2cccc3c2cnn3-c2ccc(C#N)nc2)c1 :: 6.2
CC(C)(C)C(=O)NCc1ccc(Cl)c(C(=O)Nc2cccc3c2cnn3Cc2cccc(C(F)(F)F)c2)c1 :: 10
O=C(Nc1cccc2c1cnn2-c1ccccc1)c1cc(CNC(=O)C2CC2)ccc1Cl :: 0.2
COc1ccc(-n2ncc3c(NC(=O)c4cc(CNC(=O)C(C)(C)C)ccc4Cl)cccc32)cc1C(F)(F)F :: 2.4
O=C(Nc1cccc2c1cnn2-c1ccc(C(F)(F)F)cc1)c1cc(CNS(=O)(=O)C2CC2)ccc1Cl :: 5.2

a. Cc1cncc(-n2ncc3c(NC(=O)c4cc(CNC(=O)C(C)(C)C)ccc4Cl)cccc32)c1 [Example 60, hydrochloride]
b. O=C(Nc1cccc2c1cnn2-c1ccc(C(F)(F)F)cc1)c1cc(CNC(=O)[C@H]2CC[C@@H](O)CC2)ccc1Cl
c. N#CC1(C(=O)NCc2ccc(Cl)c(C(=O)Nc3cccc4c3cnn4-c3ccc(C(F)(F)F)cc3)c2)CC1
Ask: Please give the order of these compounds when sorted by IC50, largest value leading. # the answer lists labels in the order requested
Result: b, a, c
(b: 19.1 nM, a: 6.7 nM, c: 3.9 nM)

A. Cc1ccc(-n2ncc3c(NC(=O)c4cc(CNC(=O)C(F)(F)F)ccc4Cl)cccc32)cn1 [Example 87, hydrochloride]
B. COc1ccccc1-n1ncc2c(NC(=O)c3cc(CNC(=O)C4CC4)ccc3Cl)cccc21
Ask: Pick the one with the larger IC50: A vs B Output the label that corresponds to your choice.
Result: A

###

tested on: human A549 cells; assay: Inhibition test of PGE2 production using human A549 cells; assay type: cell-based; conditions: IL-1β stimulated A549 cells, 24 h, PGE2 by HTRF, read-out: A549 cell inhibition of PGE2 production IC50
MEASURED PROPERTY: IC50 (nM)

# count of solved cases: 6
O=C(Nc1cccc2c1cnn2-c1ccc(C(F)(F)F)cc1)c1cc(CNC(=O)C2(C(F)(F)F)CC2)ccc1Cl :: 2.3
COc1cc(-n2ncc3c(NC(=O)c4cc(CNC(=O)CC(C)(C)C)ccc4Cl)cccc32)ccn1 :: 9.1
COCCC(=O)NCc1ccc(Cl)c(C(=O)Nc2cccc3c2cnn3-c2ccc(C(F)(F)F)cc2)c1 :: 8.5
Cc1cccc(-n2ncc3c(NC(=O)c4cc(CNC(=O)C5CC5)ccc4Cl)cccc32)c1 :: 1.6
CC(C)(CO)C(=O)NCc1ccc(Cl)c(C(=O)Nc2cccc3c2cnn3-c2cscn2)c1 :: 31.4
O=C(Nc1cccc2c1cnn2-c1cccc(C(F)(F)F)c1)c1cc(CNC(=O)C2CC2)ccc1Cl :: 0.7

A. O=C(Nc1cccc2c1cnn2-c1nccs1)c1cc(CNC(=O)C2CCCC2)ccc1Cl
B. O=C(Nc1cccc2c1cnn2-c1cncc(C(F)(F)F)c1)c1cc(CNC(=O)C2CC2)ccc1Cl
Ask: Decide: A or B , by lowest recorded IC50. Output the label that corresponds to your choice.
Result: B

###

molecular target: human mPGES-1 (Homo sapiens (Human), UniProt O14684); experiment: mPGES-1 inhibitory activity test; type: biochemical; details: 100 nM test compound
MEASURED PROPERTY: inhibition at 0.1 µM (%)

COc1cc(-n2ncc3c(NC(=O)c4cc(CNC(=O)CC(C)(C)C)ccc4Cl)cccc32)ccn1 :: 100
CC(C)(C)C(=O)NCc1ccc(Cl)c(C(=O)Nc2cccc3c2cnn3-c2ccc(F)cc2)c1Cl :: 100
COc1ccc(-n2ncc3c(NC(=O)c4cc(CNS(=O)(=O)C5CC5)ccc4Cl)cccc32)cn1 :: 91
CC(C)(C)CC(=O)NCc1ccc(Cl)c(C(=O)Nc2cccc3c2cnn3-c2ccc(C(F)(F)F)nc2)c1 :: 86
CC(C)(C)C(=O)NCc1ccc(C(F)(F)F)c(C(=O)Nc2cccc3c2cnn3-c2cscn2)c1 :: 97
O=C(Nc1cccc2c1cnn2-c1cccc(C(F)(F)F)c1)c1cc(CNC(=O)C2(C(F)(F)F)CC2)ccc1Cl :: 90
CC(C)(CO)C(=O)NCc1ccc(Cl)c(C(=O)Nc2cccc3c2cnn3-c2cccc(OC(F)F)c2)c1 :: 100

###

target: human mPGES-1 (Homo sapiens (Human)); assay: mPGES-1 inhibitory activity test; assay type: biochemical; settings: 10 nM test compound
MEASURED PROPERTY: inhibition at 0.01 µM (%)

# count of solved cases: 5
O=C(Nc1cccc2c1cnn2-c1ccc(C(F)(F)F)nc1)c1cc(CNS(=O)(=O)C2CC2)ccc1Cl :: 59
COc1ccc(-n2ncc3c(NC(=O)c4cc(CNC(=O)C5CCCC5)ccc4Cl)cccc32)cc1C(F)(F)F :: 99
CC(C)(C)CC(=O)NCc1ccc(Cl)c(C(=O)Nc2cccc3c2cnn3-c2cccc(OC(F)(F)F)c2)c1 :: 48
CC(C)(CO)C(=O)NCc1ccc(Cl)c(C(=O)Nc2cccc3c2cnn3-c2cscn2)c1 :: 70
Cc1ccc(-n2ncc3c(NC(=O)c4cc(CNC(=O)C(C)(C)CO)ccc4Cl)cccc32)cc1C(F)(F)F :: 92

P. O=C(Nc1cccc2c1cnn2-c1cccc(OC(F)(F)F)c1)c1cc(CNS(=O)(=O)C2CC2)ccc1Cl
Q. CC(C)n1ncc2c(NC(=O)c3cc(CNC(=O)C(C)(C)C)ccc3C(F)(F)F)cccc21
Ask: Pick the one with the larger inhibition at 0.01 µM: P vs Q Output the label that corresponds to your choice.
Result: P

###

molecular target: human mPGES-1 (Homo sapiens (Human), UniProt O14684); assay: mPGES-1 inhibitory activity test; assay type: biochemical; settings: 10 nM test compound
MEASURED PROPERTY: inhibition at 0.01 µM (%)

a. CC(C)(C)C(=O)NCc1ccc(C(F)(F)F)c(C(=O)Nc2cccc3c2cnn3-c2cscn2)c1 [Example 201]
b. CC(C)(C)C(=O)NCc1ccc(Cl)c(C(=O)Nc2cccc3c2cnn3-c2ccc(F)cc2)c1Cl [Example 158]
Ask: Pick the one with the larger inhibition at 0.01 µM: a vs b Output the label that corresponds to your choice.
Result: a
(a: 85%, b: 49%)

###

biological target: human mPGES-1 (Homo sapiens (Human)); assay: mPGES-1 inhibitory activity test; assay type: biochemical; conditions: microsomes of CHO-K1 cells expressing human mPGES-1, PGH2 1 μM, PGE2 by HTRF; read-out: mPGES-1 inhibition (IC50 nM)
Counter-ions that a name gives are not always drawn.
MEASURED PROPERTY: IC50 (nM)

# count of solved cases: 3
COCCC(=O)NCc1ccc(Cl)c(C(=O)Nc2cccc3c2cnn3-c2ccc(C(F)(F)F)cc2)c1 [Example 47] :: 8
CC(=O)NCc1ccc(Cl)c(C(=O)Nc2cccc3c2cnn3-c2ccc(C(F)(F)F)cc2)c1 [Example 18] :: 84.7
O=C(Nc1cccc2c1cnn2-c1cncc(C(F)(F)F)c1)c1cc(CNC(=O)C2CC2)ccc1Cl [Example 11] :: 2.9

a. O=C(NCc1ccc(Cl)c(C(=O)Nc2cccc3c2cnn3-c2ccc(C(F)(F)F)cc2)c1)c1ccccc1 [Example 22]
b. CCOCc1ccc(-n2ncc3c(NC(=O)c4cc(CNC(=O)C(C)(C)C)ccc4Cl)cccc32)cn1 [Example 86, hydrochloride]
Ask: Decide: a or b , by lowest recorded IC50. Output the label that corresponds to your choice.
Result: a
(a: 3.3 nM, b: 15.7 nM)

###

target: human mPGES-1 (Homo sapiens (Human), UniProt O14684); experiment: mPGES-1 inhibitory activity test; type: biochemical; conditions: 10 nM test compound
MEASURED PROPERTY: inhibition at 0.01 µM (%)

COCC(=O)NCc1ccc(Cl)c(C(=O)Nc2cccc3c2cnn3-c2ccc(OC)c(C(F)(F)F)c2)c1 :: 95

P. O=C(Nc1cccc2c1cnn2-c1cccc(C(F)(F)F)c1)c1cc(CNC(=O)C2(C(F)(F)F)CC2)ccc1Cl
Q. COc1ccc(-n2ncc3c(NC(=O)c4cc(CNC(=O)C5(C(F)(F)F)CC5)ccc4Cl)cccc32)cn1
Ask: Decide: P or Q , by lowest recorded inhibition at 0.01 µM. Output the label that corresponds to your choice.
Result: Q
(Q: 50%, P: 74%)

###

target: human mPGES-1 (Homo sapiens (Human), UniProt O14684); assay: mPGES-1 inhibitory activity test; format: biochemical; details: 10 nM test compound
MEASURED PROPERTY: inhibition at 0.01 µM (%)

# count of solved cases: 2
Cc1cncc(-n2ncc3c(NC(=O)c4cc(CNC(=O)C(C)(C)C)ccc4C(F)(F)F)cccc32)c1 :: 78
O=C(Nc1cccc2c1cnn2-c1nccs1)c1cc(CNC(=O)C2CCCC2)ccc1Cl :: 81

a. O=C(Nc1cccc2c1cnn2-c1cccc(OC(F)(F)F)c1)c1cc(CNC(=O)C2CCCC2)ccc1Cl
b. COc1cc(-n2ncc3c(NC(=O)c4cc(CNC(=O)C(C)(C)CO)ccc4Cl)cccc32)ccn1
Ask: Pick the one with the larger inhibition at 0.01 µM: a vs b Output the label that corresponds to your choice.
Result: a
(a: 100%, b: 69%)
